Test system: lanierone-responsive B-neuron OSN class (ItypOR36)
experiment-summary: net action potential response of lanierone B-neuron (blank-subtracted) (spikes/s (Hz)); higher = stronger excitation
test-settings: co-localized A-neuron class: (4S)-cis-verbenol; 10 µg on filter paper; neuron: B neuron (small spike amplitude)
Catalogue of net action potential response values
readout: net action potential response

compound="CCc1ccc(O)c(OC)c1 [4-Ethylguaiacol]" readout="net action potential response" value=1.33
compound="CC(C)=CCC/C(C)=C/C=O [Citral (E/Z mix)]" readout="net action potential response" value=-1.33
compound="Cc1ccc(C(C)C)cc1 [p-Cymene]" readout="net action potential response" value=-3.33
compound="CC(C)CCO [3-Methyl-1-butanol]" readout="net action potential response" value=3.33
compound="CC1=CCC(=C(C)C)CC1 [Terpinolene]" readout="net action potential response" value=4.67
